Attribute: IC50 (PathHunter β-Arrestin, antagonist mode)
target: somatostatin receptor SSTR4 (UniProt P31391 1-388); assay: cell-based or functional assay
Sequence (P31391 whole entry): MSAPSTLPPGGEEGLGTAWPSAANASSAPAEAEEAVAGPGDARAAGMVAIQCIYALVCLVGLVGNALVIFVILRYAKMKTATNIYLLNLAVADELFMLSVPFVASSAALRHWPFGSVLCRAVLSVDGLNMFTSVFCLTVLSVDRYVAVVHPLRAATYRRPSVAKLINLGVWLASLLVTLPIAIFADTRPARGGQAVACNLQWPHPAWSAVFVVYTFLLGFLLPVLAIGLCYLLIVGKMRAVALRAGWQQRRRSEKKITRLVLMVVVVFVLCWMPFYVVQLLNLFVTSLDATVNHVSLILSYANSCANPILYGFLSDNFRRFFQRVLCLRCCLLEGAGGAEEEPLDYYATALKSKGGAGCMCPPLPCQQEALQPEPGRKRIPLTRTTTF

1) XXYXKTCX (HELM PEPTIDE1{[N[C@@H](Cc1ccc(Cl)cc1)C(=O)[*:2]].[dC].Y.[O=C([C@@H](Cc1ccc(NS(=O)(=O)c2ccccc2)cc1)N[*:1])[*:2]].K.T.C.[dY].[am]}$PEPTIDE1,PEPTIDE1,2:R3-7:R3$$$V2.0; SMILES C[C@@H](O)[C@@H]1NC(=O)[C@H](CCCCN)NC(=O)[C@@H](Cc2ccc(NS(=O)(=O)c3ccccc3)cc2)NC(=O)[C@H](Cc2ccc(O)cc2)NC(=O)[C@H](NC(=O)[C@@H](N)Cc2ccc(Cl)cc2)CSSC[C@@H](C(=O)N[C@H](Cc2ccc(O)cc2)C(N)=O)NC1=O) [Compound 14: H-Cpa-cyclo[DCys-Tyr-D-4-(benzenesulfonyl)Aph-Lys-Thr-Cys]-DTyr-NH2] | > 1000 nM

# evaluate next
## Task Look up and state reported IC50 (PathHunter β-Arrestin, antagonist mode) for XXYXKTCX (HELM PEPTIDE1{[N[C@@H](Cc1ccc(Cl)cc1)C(=O)[*:2]].[dC].Y.[CCCCCNc1ccc(C[C@@H](N[*:1])C(=O)[*:2])cc1].K.T.C.[dY].[am]}$PEPTIDE1,PEPTIDE1,2:R3-7:R3$$$V2.0; SMILES CCCCCNc1ccc(C[C@H]2NC(=O)[C@H](Cc3ccc(O)cc3)NC(=O)[C@H](NC(=O)[C@@H](N)Cc3ccc(Cl)cc3)CSSC[C@@H](C(=O)N[C@H](Cc3ccc(O)cc3)C(N)=O)NC(=O)[C@H]([C@@H](C)O)NC(=O)[C@H](CCCCN)NC2=O)cc1) [Compound 12: H-Cpa-cyclo[D-Cys-Tyr-D-Phe(4-n-pentylamino)-Lys-Thr-Cys]-D-Tyr-NH2]
## Result > 1000 nM
